- systemName: ΔF508-CFTR (Homo sapiens, UniProt P13569, DEL508-508)
- Construct: host or cells: CFBE41o-, doxycycline-inducible
- Sequence (P13569 with tags, fused parts or gaps DEL508-508): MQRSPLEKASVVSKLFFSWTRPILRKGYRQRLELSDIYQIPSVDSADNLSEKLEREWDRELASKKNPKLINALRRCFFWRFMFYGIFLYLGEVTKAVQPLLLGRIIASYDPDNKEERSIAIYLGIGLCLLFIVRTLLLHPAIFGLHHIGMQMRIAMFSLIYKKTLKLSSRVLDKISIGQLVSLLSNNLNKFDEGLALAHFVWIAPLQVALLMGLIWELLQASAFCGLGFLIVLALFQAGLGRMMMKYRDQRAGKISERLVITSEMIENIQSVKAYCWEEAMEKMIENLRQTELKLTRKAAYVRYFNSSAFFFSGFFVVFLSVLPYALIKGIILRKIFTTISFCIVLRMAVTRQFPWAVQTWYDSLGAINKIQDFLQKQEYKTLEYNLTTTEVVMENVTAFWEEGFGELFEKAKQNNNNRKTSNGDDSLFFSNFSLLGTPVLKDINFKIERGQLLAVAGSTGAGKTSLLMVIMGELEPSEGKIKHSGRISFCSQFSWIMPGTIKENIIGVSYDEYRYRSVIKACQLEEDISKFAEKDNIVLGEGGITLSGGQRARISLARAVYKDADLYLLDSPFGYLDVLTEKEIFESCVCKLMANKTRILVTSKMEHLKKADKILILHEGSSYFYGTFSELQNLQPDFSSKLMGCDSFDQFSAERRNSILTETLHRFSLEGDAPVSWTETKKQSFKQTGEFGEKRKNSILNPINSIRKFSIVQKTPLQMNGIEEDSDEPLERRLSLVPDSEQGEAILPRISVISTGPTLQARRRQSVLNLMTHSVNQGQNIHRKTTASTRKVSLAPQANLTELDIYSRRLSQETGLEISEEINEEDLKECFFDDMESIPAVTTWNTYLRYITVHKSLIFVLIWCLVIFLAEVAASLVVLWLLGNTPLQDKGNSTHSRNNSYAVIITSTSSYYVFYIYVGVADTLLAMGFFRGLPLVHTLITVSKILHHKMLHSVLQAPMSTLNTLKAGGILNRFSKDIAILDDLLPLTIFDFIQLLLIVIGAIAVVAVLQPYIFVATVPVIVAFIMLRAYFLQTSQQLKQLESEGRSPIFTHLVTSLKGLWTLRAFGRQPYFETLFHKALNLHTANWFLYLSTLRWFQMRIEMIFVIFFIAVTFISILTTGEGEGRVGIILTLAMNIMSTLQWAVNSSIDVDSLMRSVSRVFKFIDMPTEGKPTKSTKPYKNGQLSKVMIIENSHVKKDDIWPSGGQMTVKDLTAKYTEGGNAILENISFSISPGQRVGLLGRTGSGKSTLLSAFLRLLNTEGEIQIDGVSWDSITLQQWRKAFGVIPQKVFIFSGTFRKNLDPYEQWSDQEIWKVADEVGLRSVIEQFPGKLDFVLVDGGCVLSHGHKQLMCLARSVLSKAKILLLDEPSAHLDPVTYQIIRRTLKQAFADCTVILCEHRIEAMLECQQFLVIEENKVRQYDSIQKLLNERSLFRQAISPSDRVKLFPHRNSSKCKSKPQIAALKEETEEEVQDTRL
- testDetails: CFTR cell surface levels using HRP-tagged ΔF508-CFTR expressing CFBE cells, intrinsic corrector capacity
- Type: cell-based
- runConditions: HRP-tagged ΔF508-CFTR CFBE41o- cells, compounds alone (intrinsic corrector capacity), 20 hours at 33° C.; read-out: EC50
- From the text: Measuring CFTR Cell Surface Levels Using HRP-Tagged AF508-CFTR Expressing CFBE Cells The HRP-tagged AF508-CFTR cell assay measures the expression of CFTR-ΔF508 at the plasma membrane. […] When HRP-tagged AF508-CFTR is present at the plasma membrane, the HRP enzyme activity can be measured. The amount of CFTR-ΔF508 that can be rescued to the plasma membrane is correlated with the amount of functional enzyme that can be measured. […]
Please note: EC50 exactly at 1000 nM is not fulfilled. Only values below 1000 nM get fulfilled.

Reference set, count: 5
Query: Dear colleague, could you confirm whether EC50 of Cc1nn(-c2ccccc2)c2nc(C(=O)O)cc(-c3ccc(N4CC(C)OC(C)C4)cc3)c12 (centres unmarked) [compound 114] falls below 1000 nM? Thanks.
Reply: fulfilled

Query: Bench note: check whether Cc1nn(-c2ccccc2)c2nc(C(=O)O)cc(-c3ccc(N4CCCC(O)C4)cc3)c12 (centres unmarked) [compound 198] shows EC50 below 1000 nM
Reply: not fulfilled

Query: Criterion: EC50 strictly below 1000 nM. Is it met by Cc1nn(-c2ccccc2)c2nc(C(=O)O)cc(N3CCC(F)(F)C3)c12 [compound 299] ?
Reply: not fulfilled

Query: Given the entry CC(C)c1nn(-c2cccc(N(C)C)c2)c2nc(C(=O)O)cc(-c3ccc(N(C)C4CCOCC4)nc3)c12 [compound 189] , would its reported EC50 be below 1000 nM?
Reply: fulfilled

Query: Consider COCCN(C)c1ncc(-c2cc(C(=O)O)nc3c2c(C(C)C)nn3C2CCCCC2)cn1 [compound 237] . Does its EC50 lie strictly below 1000 nM?
Reply: fulfilled

Next:
Query: I wonder whether NC(=O)c1nn(-c2ccccc2)c2nc(C(=O)O)cc(-c3ccc(N4CCOCC4)cc3)c12 [compound 64] has EC50 below 1000 nM. Can you tell?
Reply: not fulfilled

Query: Determine if CC(C)c1nn(-c2cccc(N3CCCC3)c2)c2nc(C(=O)O)cc(-c3ccc(N(C)C4CCOCC4)nc3)c12 [compound 250] shows EC50 strictly lower than 1000 nM.
Reply: fulfilled

Query: Please check: EC50 for Cc1nn(-c2ccccc2)c2nc(C(=O)O)cc(-c3ccc(N4CCS(=O)(=O)CC4)cc3)c12 [compound 14] , strictly under 1000 nM or not?
Reply: not fulfilled

---

- systemName: ΔF508-CFTR (Homo sapiens, UniProt P13569, DEL508-508)
- Construct: host or cells: CFBE41o-, doxycycline-inducible
- testDetails: CFTR cell surface levels using HRP-tagged ΔF508-CFTR expressing CFBE cells, intrinsic corrector capacity
- Format: cell-based
- runConditions: HRP-tagged ΔF508-CFTR expressing CFBE cells; intrinsic corrector capacity (no co-corrector); 33° C., 20 hours
One threshold, 200%, splits the recorded % Activation values: lower ones are True, equal or higher ones are False.

Before answering, review these 5 worked examples.
Query: In plain terms, does `O=C(O)c1cc(N2CC3(CCCC3)C2)c2c(C3CCC3)nn(-c3ccccc3)c2n1` come in under 200% for % Activation?
Reply: True

Query: Dear colleague, could you confirm whether % Activation of `CN(CCCN(C)C1CCCCC1)c1cc(C(=O)O)nc2c1c(C1CCC1)nn2-c1ccccc1` falls below 200%? Thanks.
Reply: True

Query: Report whether reported % Activation is lower than 200% (strictly) for `O=C(O)c1cc(N2CCC(N3CCOCC3)CC2)c2c(C3CCC3)nn(-c3ccnc(C4CCOCC4)c3)c2n1`
Reply: True

Query: Check if % Activation falls below 200% for `CO[C@H]1CC[C@H](Oc2cc(C(=O)O)nc3c2c(C2CCC2)nn3-c2ccccc2)CC1` .
Reply: True

Query: # strict comparison: is reported % Activation < 200%? input = `O=C(O)c1cc(N2CCC(CCN3CCOCC3)CC2)c2c(C3CCC3)nn(-c3ccc(F)cc3)c2n1`
Reply: False

Further cases:
Query: Is the reported % Activation for `CC(C)c1nn(-c2ccc(F)cc2)c2nc(C(=O)O)cc(N3CCC(CCN4CCN(C)CC4)CC3)c12` strictly below 200%?
Reply: False

Query: # strict comparison: is reported % Activation < 200%? input = `CS(=O)(=O)NC1CCN(c2cc(C(=O)O)nc3c2c(C2CCC2)nn3-c2ccccc2)CC1`
Reply: True
